Would you kindly list aptazyme ON/OFF ratio for each of these variants?
B1: Pistol ribozyme (parent)
chain: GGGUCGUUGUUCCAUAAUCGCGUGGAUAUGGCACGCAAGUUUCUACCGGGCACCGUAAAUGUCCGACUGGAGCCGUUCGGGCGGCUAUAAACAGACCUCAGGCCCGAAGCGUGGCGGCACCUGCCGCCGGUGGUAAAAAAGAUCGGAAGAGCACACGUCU

variants of: B1; assay: aptazyme ON/OFF ratio, guanine; higher = stronger switching; co-transcriptional cleavage with and without guanine
Answers are plain numbers.

The following variants have reported results that may help.
U8C G9A U10G C12A C13G = 1.1
G9A U10G U11C C12A C13G = 1.15
U7C U8G G9U U10G U11A C12U = 1.13

Batch of 4 variants: report aptazyme ON/OFF ratio for each.
1. U7C U8G G9A U10C U11G C12G C13U
2. U8A G9U C12A C13G
3. U7G U8C G9A U10C C12G C13U
4. U7G U8G U10G U11A C13G

1. 1.09
2. 1.16
3. 1.28
4. 1.18

Batch of 2 variants: report aptazyme ON/OFF ratio for each.
1. U7A G9U U10G U11G C12A
2. U7A U8C G9C U11C C12G

1.13
1.18

Batch of 4 variants: report aptazyme ON/OFF ratio for each.
1. U7G U8A G9A C12A
2. U7A U8C G9C U10C C12G C13G
3. U8C G9U U10A C12G
4. U8A G9U U10A C12U C13U

[1.06, 1.12, 1.27, 1.13]
